The reported measurements were obtained from paper PMC10721329.

system: GB239 patient-derived GSC line; experiment: CellTiter-Glo dose-response cell viability assay; format: cell-based, human; conditions: Homo sapiens; GB239; 3-5 days
Attribute measured: pIC50
pIC50 here: minus log base 10 of the concentration, concentration in moles per litre.

Any idea what pIC50 came out for Cn1cc(CNCC2CCN(c3ncc(C(=O)NO)cn3)CC2)c2ccccc21 on GB239 patient-derived GSC line?
7.39

###

assay: Total and unbound QST in tumor and contralateral brain at survival end point, orthotopic GB126 PDX; format: in vivo; conditions: athymic nude, mouse, plasma, intraperitoneal, 10 mg/kg, Combo cohort; mean; read-out: Total QST, Plasma, Mean
Attribute measured: concentration at 3 h (nM)
Write down the numeric answer in nM and omit the unit.

Form field: reported concentration at 3 h of Cn1cc(CNCC2CCN(c3ncc(C(=O)NO)cn3)CC2)c2ccccc21
141

###

assay: Total and unbound QST in tumor and contralateral brain at survival end point, orthotopic GB126 PDX; format: in vivo; conditions: athymic nude, mouse, tumor, intraperitoneal, 10 mg/kg, Combo cohort; mean; read-out: Unbound QST, Tumor, Mean
Attribute measured: concentration at 3 h (nM)
Value expressed in nM; do not type the unit.

Quick one: concentration at 3 h of Cn1cc(CNCC2CCN(c3ncc(C(=O)NO)cn3)CC2)c2ccccc21 ?
55.2

###

test: Total and unbound QST in plasma and normal brain of non-tumor-bearing mice (equilibrium dialysis, LC-MS/MS); format: in vivo, athymic nude mice; conditions: athymic nude, mouse, brain, intraperitoneal, 10 mg/kg, normal mouse brains; individual mice, n=6; read-out: Total QST, brain
Attribute measured: concentration at 2 h (nM)
Please respond with the number in nM and leave the unit unwritten.

# get_value(readout='concentration at 2 h', item= Cn1cc(CNCC2CCN(c3ncc(C(=O)NO)cn3)CC2)c2ccccc21 )
45.3

###

test: Total QST levels in plasma and flank tumors (LC-MS/MS); assay type: in vivo; conditions: athymic nude, mouse, plasma, ip, 10 mg/kg, QST- and combination-treated mice; 10 mg/kg IP; 2 hours after final dose; read-out: mean total QST concentration in plasma
Attribute measured: concentration at 2 h

Need concentration at 2 h of Cn1cc(CNCC2CCN(c3ncc(C(=O)NO)cn3)CC2)c2ccccc21 [QST, quisinostat] , thanks.
~300 nM

###

Assay: Total and unbound QST in tumor and contralateral brain at survival end point, orthotopic GB126 PDX
Type: in vivo
Details: athymic nude, mouse, brain (contralateral to tumor), intraperitoneal, 10 mg/kg, QST cohort; mean; read-out: Total QST, Brain, Mean
Protocol: All mice included in the survival study were processed for end-point PK and PD analyses once moribund. […] QST concentrations in specimens were measured using reverse-phase LC on the AB SCIEX QTRAP6500+ LC-MS/MS system by operating electrospray in the positive ion mode. […] Gy on MWF for a total of 6 Gy in the first week of treatment. […] Tumor growth and treatment response was monitored by IVIS bioluminescence […]
Attribute measured: concentration at 3 h (nM)
Give the value, in units of nM, as a plain number.

Given the entry Cn1cc(CNCC2CCN(c3ncc(C(=O)NO)cn3)CC2)c2ccccc21 [QST, quisinostat] , report its measured concentration at 3 h.
67.8

###

experiment: Total and unbound QST in plasma and normal brain of non-tumor-bearing mice (equilibrium dialysis, LC-MS/MS); format: in vivo, athymic nude mice; settings: athymic nude, mouse, brain, intraperitoneal, 10 mg/kg, normal mouse brains; individual mice, n=6; read-out: Unbound QST, brain
Attribute measured: concentration at 2 h (nM)
API: value field is a number in nM; no unit string.

State the recorded concentration at 2 h for this entry: Cn1cc(CNCC2CCN(c3ncc(C(=O)NO)cn3)CC2)c2ccccc21
1.65

###

experiment: Plasma pharmacokinetics by route of administration (IP, SC, OG); format: in vivo, athymic nude mice; details: male, Foxn1nu athymic nude, mouse, plasma, sc, 10 mg/kg, SC 10 mg/kg single dose; 1 h; individual mice; read-out: [QST] in plasma
Attribute measured: concentration at 1 h (nM)
Output spec: scalar in nM, unitless text.

// lookup concentration at 1 h for Cn1cc(CNCC2CCN(c3ncc(C(=O)NO)cn3)CC2)c2ccccc21
418

###

assay: Plasma pharmacokinetics by route of administration (IP, SC, OG); type: in vivo, athymic nude mice; conditions: male, Foxn1nu athymic nude, mouse, plasma, ip, 10 mg/kg, IP 10 mg/kg single dose; 8 h; individual mice; read-out: [QST] in plasma
Attribute measured: concentration at 8 h (nM)
Your answer should be a plain number; it is taken to be in nM.

Give its concentration at 8 h value. Item: Cn1cc(CNCC2CCN(c3ncc(C(=O)NO)cn3)CC2)c2ccccc21
15.9

###

experiment: Total and unbound QST in tumor and contralateral brain at survival end point, orthotopic GB126 PDX; type: in vivo; settings: athymic nude, mouse, plasma, intraperitoneal, 10 mg/kg, QST cohort; mean; read-out: Total QST, Plasma, Mean
Attribute measured: concentration at 3 h (nM)
Field: numeric (nM). Do not append units.

So what's the measured concentration at 3 h for this one? Cn1cc(CNCC2CCN(c3ncc(C(=O)NO)cn3)CC2)c2ccccc21 [QST, quisinostat]
265

###

assay: Total QST levels in plasma and flank tumors (LC-MS/MS); format: in vivo; settings: athymic nude, mouse, flank tumor, ip, 10 mg/kg, QST- and combination-treated mice; 10 mg/kg IP; 2 hours after final dose; read-out: mean total QST concentration in flank tumors
Attribute measured: concentration at 2 h

Given the entry Cn1cc(CNCC2CCN(c3ncc(C(=O)NO)cn3)CC2)c2ccccc21 , report its measured concentration at 2 h.
~433 nM

###

experiment: Dose-response cell viability assay in normal astrocytes; format: cell-based, human; conditions: human, primary human astrocytes (NHA), NHA; QST 100 nM (log[nM] 2); 3 days; read-out: Cell viability (fraction of DMSO control)
Attribute measured: viability at 3 days, 100 nM
Give me the value, and tack the unit on after it.

# query: viability at 3 days, 100 nM of entry Cn1cc(CNCC2CCN(c3ncc(C(=O)NO)cn3)CC2)c2ccccc21
27.2%

###

test: Plasma pharmacokinetics by route of administration (IP, SC, OG); assay type: in vivo, athymic nude mice; details: male, Foxn1nu athymic nude, mouse, plasma, oral, 10 mg/kg, OG 10 mg/kg single dose; 2 h; individual mice; read-out: [QST] in plasma
Attribute measured: concentration at 2 h (nM)
Express it in nM; write the number only.

Look up concentration at 2 h for this molecule: Cn1cc(CNCC2CCN(c3ncc(C(=O)NO)cn3)CC2)c2ccccc21 [QST, quisinostat]
8.86

###

test: Total and unbound QST in tumor and contralateral brain, short-term treatment, orthotopic GB126 PDX; format: in vivo; conditions: athymic nude, mouse, brain tumor (orthotopic GB126 xenograft), intraperitoneal, 10 mg/kg, acute treated tumors; mean; read-out: Unbound QST, tumor, mean
Attribute measured: concentration at 3 h

If you can, please state the reported concentration at 3 h value of Cn1cc(CNCC2CCN(c3ncc(C(=O)NO)cn3)CC2)c2ccccc21 .
29.4 nM

###

assay: Plasma pharmacokinetics by route of administration (IP, SC, OG); type: in vivo, athymic nude mice; details: male, Foxn1nu athymic nude, mouse, plasma, oral, 10 mg/kg, OG 10 mg/kg single dose; 6 h; individual mice; read-out: [QST] in plasma
Attribute measured: concentration at 6 h (nM)
Express it in nM; write the number only.

Value lookup for concentration at 6 h; key = Cn1cc(CNCC2CCN(c3ncc(C(=O)NO)cn3)CC2)c2ccccc21 [QST, quisinostat]
4.91

###

test: Total and unbound QST in tumor and contralateral brain, short-term treatment, orthotopic GB126 PDX; type: in vivo; settings: athymic nude, mouse, brain tissue contralateral to the tumor, intraperitoneal, 10 mg/kg, acute treated tumor-bearing mice; mean; read-out: Total QST, brain, mean
Attribute measured: concentration at 3 h
Returns: string containing the number followed by the unit.

Need concentration at 3 h of Cn1cc(CNCC2CCN(c3ncc(C(=O)NO)cn3)CC2)c2ccccc21 , thanks.
25.4 nM

###

assay: Total and unbound QST in tumor and contralateral brain, short-term treatment, orthotopic GB126 PDX; format: in vivo; conditions: athymic nude, mouse, in vivo, 10 mg/kg; acute treated tumor-bearing mice; individual mice; read-out: TOTAL [QST], brain
Attribute measured: concentration at 3 h (nM)
Answer with a number only, understood to be in nM.

Fill in the blank: the reported concentration at 3 h of Cn1cc(CNCC2CCN(c3ncc(C(=O)NO)cn3)CC2)c2ccccc21 is ____.
16.8

###

experiment: Total QST levels in plasma and flank tumors (LC-MS/MS); type: in vivo; conditions: athymic nude, mouse, flank tumor, intraperitoneal, 10 mg/kg, QST monotherapy cohort; read-out: [QST] total, flank tumor, Mean
Attribute measured: concentration at 2 h

So what's the measured concentration at 2 h for this one? Cn1cc(CNCC2CCN(c3ncc(C(=O)NO)cn3)CC2)c2ccccc21 [QST, quisinostat]
479 nM
